# Tested System: TLR 4 (Mus musculus, UniProt Q9JHF9+Q9QUK6)
# Construct: endogenous in cells; host or cells: RAW264.7 (ATCC)
# Sequence (Q9QUK6 26-835): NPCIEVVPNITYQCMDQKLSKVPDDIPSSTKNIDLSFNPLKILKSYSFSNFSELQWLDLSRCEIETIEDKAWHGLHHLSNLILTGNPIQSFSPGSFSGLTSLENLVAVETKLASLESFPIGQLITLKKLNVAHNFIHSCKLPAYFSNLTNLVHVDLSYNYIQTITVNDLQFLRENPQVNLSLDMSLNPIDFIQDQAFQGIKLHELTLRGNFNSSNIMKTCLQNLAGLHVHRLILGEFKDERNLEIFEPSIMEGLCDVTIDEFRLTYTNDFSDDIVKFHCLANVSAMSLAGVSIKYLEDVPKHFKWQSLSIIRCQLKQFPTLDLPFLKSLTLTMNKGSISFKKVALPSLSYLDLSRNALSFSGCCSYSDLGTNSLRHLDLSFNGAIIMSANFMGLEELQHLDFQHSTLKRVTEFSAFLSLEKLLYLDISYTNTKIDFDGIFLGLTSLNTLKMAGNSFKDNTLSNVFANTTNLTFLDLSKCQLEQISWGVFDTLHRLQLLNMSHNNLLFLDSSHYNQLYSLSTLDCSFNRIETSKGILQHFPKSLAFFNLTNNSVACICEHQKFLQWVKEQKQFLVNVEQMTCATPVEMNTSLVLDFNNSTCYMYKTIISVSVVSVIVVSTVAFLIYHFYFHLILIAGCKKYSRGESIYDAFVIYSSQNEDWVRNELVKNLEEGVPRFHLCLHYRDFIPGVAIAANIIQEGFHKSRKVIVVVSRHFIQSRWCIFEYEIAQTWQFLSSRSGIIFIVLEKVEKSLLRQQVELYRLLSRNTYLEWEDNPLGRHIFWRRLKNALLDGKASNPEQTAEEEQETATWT
# Sequence (Q9JHF9 19-160): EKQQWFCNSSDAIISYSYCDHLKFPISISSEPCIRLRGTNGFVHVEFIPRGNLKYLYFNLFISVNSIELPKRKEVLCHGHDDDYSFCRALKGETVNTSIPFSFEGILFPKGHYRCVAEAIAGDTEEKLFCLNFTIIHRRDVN
# Experiment: LPS-induced TNF-α secretion by RAW264.7 cells (TLR 4 antagonism)
# Format: cell-based
# Condition Set: RAW264.7, 10 ng/mL LPS, 4 hours, lipid 100 to 0.008 μg/mL
# Protocol: The mouse macrophage cell line, RAW264.7, was obtained from ATCC and maintained in DMEM, supplemented with 10% bovine growth serum and 1× penicillin streptomycin. […] Subsequently, the media were collected, diluted and an enzyme-linked immunosorbent assay (ELISA) was performed to quantify TNFα release by cells. […] For quantitative comparisons between POPG analogs and POPG, concentration-dependent inhibition studies were performed and IC50 values were determined. […]
Endpoint Name: IC50 values (inhibition of TNFα release)

INSERT INTO measurements (compound, endpoint_name, result) VALUES
  ('CCCCCCCCCCCCCCCCCC(=O)OCC(COP(=O)(O)OCC(O)C(O)C(O)CO)OC(=O)CCCCCCCCCCCCCCCCC (stereo not drawn) [DSPX]', 'IC50 values (inhibition of TNFα release)', 'could not be determined'),
  ('CCCCCCCC/C=C\CCCCCCCC(=O)O[C@H](COC(=O)CCCCCCCCCCCCCCC)COP(=O)([O-])OCC[N+](C)(C)C [POPC, reference compound]', 'IC50 values (inhibition of TNFα release)', 'could not be determined'),
  ('CCCCCCCCCCCCCCCC(=O)OCC(COP(=O)(O)OCC(O)C(O)C(O)CO)OC(=O)CCCCCCCCCCCCCCC (stereo not drawn) [DPPX]', 'IC50 values (inhibition of TNFα release)', 'could not be determined');
